Just for reference, patent US20120207760A1 is where these values come from.

assayed target: Hemagglutinin of influenza A/Japan/305/57 (H2N2), on inactivated whole virions (Influenza A virus A/Japan/305/1957 …, UniProt P03451 16-562)
procedure summary: ELISA, B cell culture supernatant on inactivated whole virions
measured property: OD450 (OD450)
Value expressed in OD450; do not type the unit.

binder	OD450 (OD450)
TCN-547 (5092_F11) (antibody, V domains shown) VH: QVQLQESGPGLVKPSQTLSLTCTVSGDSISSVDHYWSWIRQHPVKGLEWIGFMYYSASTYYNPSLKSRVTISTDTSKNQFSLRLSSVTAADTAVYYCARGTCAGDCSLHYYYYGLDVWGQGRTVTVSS VL: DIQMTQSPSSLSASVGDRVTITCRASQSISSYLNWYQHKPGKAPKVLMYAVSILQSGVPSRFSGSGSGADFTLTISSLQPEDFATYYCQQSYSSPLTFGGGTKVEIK	0.07
TCN-556 (5089_K12) (antibody, V domains shown) VH: QVQLVQSGAEVKKPGASVKVSCKASGYTFIGYDMHWVRQAPGQGLEWMGWINAKRGGTNYAQKFQGRVTMTRDTSISTAYMELNSLRSDDTAVYYCARGVGSRTTIFGVLNPEFDYWGQGTLVTVSS VL: QSALTQPPSASGSPGQSVTISCTGSSSDVGGYDYVSWYQQHPGKAPKLLIYEVTKRPSGVPDRFSGSKSGNTASLTVSGLQAEDEADYYCSSYAGNYNHVFGPGTKVTVL	2.41

// moving on: another record for OD450
stdin: Return reported OD450; argument: TCN-553 (5261_C18) (antibody, V domains shown) VH: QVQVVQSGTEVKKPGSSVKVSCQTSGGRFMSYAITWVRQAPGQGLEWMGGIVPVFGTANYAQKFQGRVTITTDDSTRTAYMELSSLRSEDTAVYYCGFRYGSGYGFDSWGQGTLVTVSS VL: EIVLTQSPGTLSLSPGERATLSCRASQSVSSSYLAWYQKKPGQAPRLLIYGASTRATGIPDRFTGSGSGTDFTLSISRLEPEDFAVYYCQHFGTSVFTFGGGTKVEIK
stdout: 2.54
